Assay: Selectivity index, ratio of IC50 for mouse RAW264.7 cells to MIC for methicillin-resistant Staphylococcus aureus ATCC43300
Format: toxicity
Details: read-out: Selectivity Index
The entries below come with measured selectivity ratio values attached.
Reply with the value as a number alone.

Some compounds with recorded selectivity ratio:
COc1cc(/C=C/c2cccc(F)c2)c(C(=O)O)c(O)c1CC=C(C)C :: 5.04
COc1cc(/C=C/c2ccc(C(F)(F)F)cc2)c(C(=O)O)c(O)c1CC=C(C)C :: 12.9

Consider the record given below.
query: Item under review: COc1cc(/C=C/c2ccccc2F)c(C(=O)O)c(O)c1CC=C(C)C . Reported selectivity ratio?
result: 6.17

----------
Assay: Selectivity index, ratio of IC50 for mouse RAW264.7 cells to MIC for methicillin-resistant Staphylococcus aureus ATCC510019
Assay type: toxicity
Settings: read-out: Selectivity Index
Listed below: selectivity ratio values for each entry.

Please review the entries below; each comes with its answer.
COc1cc(/C=C/c2ccc(F)cc2F)c(C(=O)O)c(O)c1CC=C(C)C :: 23.3
COc1cc(/C=C/c2ccc(C(F)(F)F)cc2)c(C(=O)O)c(O)c1CC=C(C)C :: 12.9
COc1cc(/C=C/c2ccccc2F)c(C(=O)O)c(O)c1CC=C(C)C :: 12.3

Now let's try a different one.
query: Sample COc1cc(/C=C/c2cccc(F)c2)c(C(=O)O)c(O)c1CC=C(C)C — what was its selectivity ratio?
result: 20.2

----------
System: Staphylococcus aureus
Assay: Antibacterial activity against methicillin-resistant Staphylococcus aureus ATCC513045 assessed as bacterial growth inhibition after 24 hrs by broth dilution method
Format: functional
Conditions: ATCC513045, 24 h
MIC by entry:
Value expressed in µg/mL; do not type the unit.

COc1cc(/C=C/c2ccc(C(F)(F)F)cc2)c(C(=O)O)c(O)c1CC=C(C)C :: 8
COc1cc(/C=C/c2ccccc2)c(C(=O)O)c(O)c1CC=C(C)C :: 16
COC(=O)c1c(/C=C/c2cccc(F)c2)cc(OC)c(CC=C(C)C)c1O :: 128
COc1cc(/C=C/c2ccc(C)cc2)c(C(=O)O)c(O)c1CC=C(C)C :: 8

Now turn to the next compound.
query: Notebook: pull reported MIC for Staphylococcus aureus, entry COc1cc(/C=C/c2ccccc2F)c(C(=O)O)c(O)c1CC=C(C)C
result: 2

----------
Recorded selectivity ratio, one value per entry.
Assay: Selectivity index, ratio of IC50 for mouse RAW264.7 cells to MIC for methicillin-resistant Staphylococcus aureus ATCC425055
Type: toxicity
Details: read-out: Selectivity Index
Keep it simple and answer with nothing but the number.

Consider the reported selectivity ratio for these compounds:
COc1cc(/C=C/c2ccc(C(F)(F)F)cc2)c(C(=O)O)c(O)c1CC=C(C)C :: 12.9
COc1cc(/C=C/c2ccccc2F)c(C(=O)O)c(O)c1CC=C(C)C :: 6.17

For the next question, use this compound.
query: Which selectivity ratio reading was recorded for the compound COc1cc(/C=C/c2cccc(F)c2)c(C(=O)O)c(O)c1CC=C(C)C ?
result: 5.04

----------
Experiment: Selectivity index, ratio of IC50 for mouse RAW264.7 cells to MIC for methicillin-resistant Staphylococcus aureus ATCC51033
Type: toxicity
Conditions: read-out: Selectivity Index
EXPERIMENTAL READOUT: selectivity ratio

COc1cc(/C=C/c2ccccc2F)c(C(=O)O)c(O)c1CC=C(C)C :: 6.17
COc1cc(/C=C/c2cccc(F)c2)c(C(=O)O)c(O)c1CC=C(C)C :: 5.04

query: Recorded selectivity ratio for COc1cc(/C=C/c2ccc(C(F)(F)F)cc2)c(C(=O)O)c(O)c1CC=C(C)C , please?
result: 12.9

query: # selectivity ratio lookup, item COc1cc(/C=C/c2ccc(F)cc2F)c(C(=O)O)c(O)c1CC=C(C)C
result: 46.5

----------
System: Pseudomonas aeruginosa
Test: Antibacterial activity against Pseudomonas aeruginosa ATCC2785 assessed as bacterial growth inhibition after 24 hrs by broth dilution method
Assay type: functional
Details: ATCC2785, 24 h
EXPERIMENTAL READOUT: MIC

COc1cc(/C=C/c2cccc(F)c2)c(C(=O)O)c(O)c1CC=C(C)C :: > 64 µg/mL

query: If you can, please state the reported MIC value of COC(=O)c1c(/C=C/c2ccc(F)cc2F)cc(OC)c(CC=C(C)C)c1O .
result: > 128 µg/mL

query: Please give the measured MIC for this molecule: COC(=O)c1c(O)cc(OC)cc1/C=C/c1ccc(Cl)cc1
result: > 128 µg/mL

query: // returns reported MIC for input COC(=O)c1c(/C=C/c2cc(OC)c(OC)c(OC)c2)cc(OC)c(CC=C(C)C)c1O
result: > 128 µg/mL

----------
Assay: Cytotoxicity against mouse RAW264.7 cells assessed as cell viability at 8 ug/ml after 72 hrs by MTT assay
Assay type: cell-based
Settings: read-out: Activity
Some molecules, each annotated with its measured viability at 72 h, 8 ug/ml.
Give the value; after it, write the unit.

COc1cc(/C=C/c2ccc(F)cc2F)c(C(=O)O)c(O)c1CC=C(C)C :: 94.4%
COc1cc(/C=C/c2ccccc2F)c(C(=O)O)c(O)c1CC=C(C)C :: 92.7%
COc1cc(/C=C/c2ccc(C(F)(F)F)cc2)c(C(=O)O)c(O)c1CC=C(C)C :: 90.6%

query: Need viability at 72 h, 8 ug/ml of COc1cc(/C=C/c2cccc(F)c2)c(C(=O)O)c(O)c1CC=C(C)C , thanks.
result: 91.7%

----------
compounds and their reported selectivity ratio
Experiment: Selectivity index, ratio of IC50 for mouse RAW264.7 cells to MIC for methicillin-resistant Staphylococcus aureus ATCC513045
Type: toxicity
Conditions: read-out: Selectivity Index
Hey, just send me the number, nothing else.

Previously resolved entries follow.
COc1cc(/C=C/c2ccc(C(F)(F)F)cc2)c(C(=O)O)c(O)c1CC=C(C)C :: 12.9
COc1cc(/C=C/c2ccccc2F)c(C(=O)O)c(O)c1CC=C(C)C :: 6.17

Now for a further compound.
query: I have this compound here, COc1cc(/C=C/c2cccc(F)c2)c(C(=O)O)c(O)c1CC=C(C)C , and I need its recorded selectivity ratio.
result: 5.04

----------
Reported selectivity ratio values are given for each entry in this list.
Experiment: Selectivity index, ratio of IC50 for mouse RAW264.7 cells to MIC for methicillin-resistant Staphylococcus aureus ATCC62202
Type: toxicity
Conditions: read-out: Selectivity Index
No unit in the answer, please; the number alone is enough.

Below: 3 compounds and their reported selectivity ratio.
COc1cc(/C=C/c2cccc(F)c2)c(C(=O)O)c(O)c1CC=C(C)C :: 5.04
COc1cc(/C=C/c2ccccc2F)c(C(=O)O)c(O)c1CC=C(C)C :: 6.17
COc1cc(/C=C/c2ccc(C(F)(F)F)cc2)c(C(=O)O)c(O)c1CC=C(C)C :: 12.9

// below: selectivity ratio requested for another compound
query: Sample COc1cc(/C=C/c2ccc(F)cc2F)c(C(=O)O)c(O)c1CC=C(C)C — what was its selectivity ratio?
result: 46.5

----------
Tested on: Staphylococcus epidermidis
Experiment: Antibacterial activity against Staphylococcus epidermidis ATCC12228 assessed as bacterial growth inhibition after 24 hrs by broth dilution method
Assay type: functional
Settings: ATCC12228, 24 h
EXPERIMENTAL READOUT: MIC (µg/mL)
Numeric answer only, unit µg/mL assumed.

CC1(C)S[C@@H]2[C@H](NC(=O)Cc3ccccc3)C(=O)N2[C@H]1C(=O)O :: 2

# next molecule below
query: Can you share its MIC? I mean this molecule: COC(=O)c1c(/C=C/c2ccc(Cl)cc2)cc(OC)c(CC=C(C)C)c1O
result: 128

----------
System: Staphylococcus aureus
Experiment: Antibacterial activity against methicillin-resistant Staphylococcus aureus ATCC513045 assessed as bacterial growth inhibition after 24 hrs by broth dilution method
Assay type: functional
Details: ATCC513045, 24 h
Documented MIC across a set of compounds

Reference set (3 entries):
COC(=O)c1c(/C=C/c2ccc(OC)cc2)cc(OC)c(CC=C(C)C)c1O :: 128 µg/mL
COC(=O)c1c(O)cc(OC)cc1/C=C/c1ccc(OC)cc1 :: > 128 µg/mL
COC(=O)c1c(O)cc(OC)cc1/C=C/c1ccc(F)cc1 :: > 128 µg/mL

query: Looking for the measured MIC of COc1cc(/C=C/c2ccc(F)cc2F)c(C(=O)O)c(O)c1CC=C(C)C , can you help?
result: 2 µg/mL

query: What value of measured MIC is listed for COC(=O)c1c(/C=C/c2ccccc2F)cc(OC)c(CC=C(C)C)c1O ?
result: 128 µg/mL

query: Name the reported MIC value associated with the compound COc1ccc(/C=C/c2cc(OC)cc(O)c2C(=O)O)cc1
result: > 128 µg/mL

query: For CC1(C)S[C@@H]2[C@H](NC(=O)Cc3ccccc3)C(=O)N2[C@H]1C(=O)O [PENICILLIN G] , what is its reported MIC?
result: 32 µg/mL

query: Dear colleague, I am looking for the recorded MIC of the following compound: COc1cc(/C=C/c2cccc(C#N)c2)c(C(=O)O)c(O)c1CC=C(C)C
result: 4 µg/mL

query: Given the entry COC(=O)c1c(O)cc(OC)cc1/C=C/c1ccc(C(F)(F)F)cc1 , report its measured MIC.
result: 128 µg/mL

query: Would you kindly share the measured MIC for COc1cc(O)c(C(=O)O)c(/C=C/c2ccccc2)c1 ?
result: > 128 µg/mL

query: So what's the measured MIC for this one? COc1cc(/C=C/c2cccc(F)c2)c(C(=O)O)c(O)c1CC=C(C)C
result: 2 µg/mL
